meta.source: patent US8124780B2

System: gastric acid secretion
assay.text: animal or person
Assay type: in vivo, dog
setup.conditions: Canis lupus familiaris, iv, read-out: Inhibitory effect against gastric acid secretion (%)
Where a name gives a salt, the structure may show the parent alone.

# compound, inhibition in vivo at 0.4 mg/kg
data = [
    ("Cc1c(OCC2OCC(C)(C)CO2)ccnc1C[S+]([O-])c1nc2ccccc2[nH]1 (stereo not shown) [Example 1, sodium salt]", "94%"),
    ("Cc1cnc(C[S+]([O-])c2nc3ccccc3[nH]2)c(C)c1OCC1COC(C)(C)OC1 (stereo not shown) [Example 11, sodium salt]", "79%"),
    ("Cc1c(OCC2OCC3(CC3)CO2)ccnc1C[S+]([O-])c1nc2ccccc2[nH]1 (stereo not shown) [Example 2, sodium salt]", "100%"),
    ("Cc1c(OCC2(C)OCC3(CO2)OCCO3)ccnc1C[S+]([O-])c1nc2ccccc2[nH]1 (stereo not shown) [Example 5, sodium salt]", "54%"),
]

====

Tested on: gastric acid secretion
assay.text: animal or person
Format: in vivo, dog
setup.conditions: Canis lupus familiaris, iv, read-out: Inhibitory effect against gastric acid secretion (%)
Counter-ions that a name gives are not always drawn.

# compound, inhibition in vivo at 0.8 mg/kg (%)
records = [
    ("[O-][S+](Cc1cc(OCC2COC(CF)(CF)OC2)ccn1)c1nc2ccccc2[nH]1 (stereo not shown) [Example 59, sodium salt]", 89),
    ("CCC1(COc2ccnc(C[S+]([O-])c3nc4ccccc4[nH]3)c2C)OCCO1 (stereo not shown) [Example 40, sodium salt]", 99),
    ("CCC1(CCOc2ccnc(C[S+]([O-])c3nc4ccccc4[nH]3)c2C)OCC2(CO1)OCCO2 (stereo not shown) [Example 4, sodium salt]", 100),
    ("Cc1c(OC2COC3(CCC3)OC2)ccnc1C[S+]([O-])c1nc2ccccc2[nH]1 (stereo not shown) [Example 9, sodium salt]", 100),
    ("[O-][S+](Cc1cc(OCC2COC3(CCOCC3)OC2)ccn1)c1nc2ccccc2[nH]1 (stereo not shown) [Example 60, sodium salt]", 89),
    ("Cc1c(OCCC2(C)OCC3(CO2)OCCO3)ccnc1C[S+]([O-])c1nc2ccccc2[nH]1 (stereo not shown) [Example 73, sodium salt]", 100),
    ("Cc1c(OCC2(C)OCC3(CO2)OCCO3)ccnc1C[S+]([O-])c1nc2ccccc2[nH]1 (stereo not shown) [Example 5, sodium salt]", 100),
]

====

Tested on: gastric acid secretion
assay.text: animal or person
Assay type: in vivo, dog
setup.conditions: Canis lupus familiaris, iv, read-out: Inhibitory effect against gastric acid secretion (%)
Where a name gives a salt, the structure may show the parent alone.

# compound, unit.label, inhibition in vivo at 0.8 mg/kg
rows = [
    ("CCCC1(CCOc2ccnc(C[S+]([O-])c3nc4ccccc4[nH]3)c2C)OCCO1 (stereo not shown) [Example 3, sodium salt]", "%", 100),
    ("COC1OCC(COc2ccnc(C[S+]([O-])c3nc4ccccc4[nH]3)c2C)CO1 (stereo not shown) [Example 6, sodium salt]", "%", 100),
    ("[O-][S+](Cc1cc(OCC2OCC3(CC3)CO2)ccn1)c1nc2ccccc2[nH]1 (stereo not shown) [Example 50, sodium salt]", "%", 79),
    ("CCCC1(CCOc2ccnc(C[S+]([O-])c3nc4ccccc4[nH]3)c2C)OCCCO1 (stereo not shown) [Example 8, sodium salt]", "%", 100),
    ("[O-][S+](Cc1cc(OCC2COC3(CCCC3)OC2)ccn1)c1nc2ccccc2[nH]1 (stereo not shown) [Example 58, sodium salt]", "%", 95),
    ("Cc1ccc2[nH]c([S+]([O-])Cc3nccc(OCC4COC(C)(C)OC4)c3C)nc2c1 (stereo not shown) [Example 55, sodium salt]", "%", 83),
    ("Cc1cnc(C[S+]([O-])c2nc3ccccc3[nH]2)c(C)c1OCC1COC(C)(C)OC1 (stereo not shown) [Example 11, sodium salt]", "%", 100),
]
